Reference source for all entries: ChEMBL document CHEMBL1781958

Assay: Drug level in Sprague-Dawley rat plasma at 10 mg/kg, po after 2 hrs
Type: ADME, organism-based
Parameters: dose 10 mg/kg, route oral
PROPERTY NAME: concentration at 2 h (nM)
Your answer should be a plain number; it is taken to be in nM.

The molecule listed as `C[C@@H]1NC(c2ccc(=O)n(C(F)F)c2)=N[C@@]1(c1ccc(F)cc1)c1ccc(F)nc1` shows concentration at 2 h equal to 2200

----------
Assay: Ratio of drug level in brain to plasma in mdr1a deficient CF1 mouse at 10 mg/kg, po after 2 hrs
Type: ADME, organism-based
Design: dose 10 mg/kg, route oral
Conditions: read-out: BPR
PROPERTY NAME: Kp at 2 h
Just the number, please, no unit attached.

The molecule listed as `C[C@@H]1NC(c2ccc(=O)n(C(F)F)c2)=N[C@@]1(c1ccc(F)cc1)c1ccc(F)nc1` shows Kp at 2 h equal to 2.05
